Below is a list of entries, each paired with its recorded Ki value.
- experimental-system: Peroxisome proliferator-activated receptor gamma (Homo sapiens, UniProt P37231)
- Sequence (P37231 whole entry): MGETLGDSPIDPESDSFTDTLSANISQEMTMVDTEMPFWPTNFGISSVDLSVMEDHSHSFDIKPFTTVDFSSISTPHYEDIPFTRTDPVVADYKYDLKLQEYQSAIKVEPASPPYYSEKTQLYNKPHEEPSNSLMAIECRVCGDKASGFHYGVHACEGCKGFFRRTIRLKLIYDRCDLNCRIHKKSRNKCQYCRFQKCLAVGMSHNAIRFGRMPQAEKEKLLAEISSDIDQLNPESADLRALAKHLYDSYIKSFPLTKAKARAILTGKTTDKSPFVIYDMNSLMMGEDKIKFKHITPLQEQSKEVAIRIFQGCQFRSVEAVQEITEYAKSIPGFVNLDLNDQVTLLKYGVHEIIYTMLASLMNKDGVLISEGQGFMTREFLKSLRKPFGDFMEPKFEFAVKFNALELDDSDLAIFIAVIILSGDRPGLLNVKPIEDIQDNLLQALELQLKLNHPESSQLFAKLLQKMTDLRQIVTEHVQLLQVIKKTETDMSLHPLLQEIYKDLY
- measurement-notes: Displacement of [3H]rosiglitazone from human PPARgamma receptor
# number only, unit nM dropped from output

Note to self: Ki recorded for "CO/N=C(\c1ccccc1)c1ccc2c(c1)C(C)(C)CCN2CCOc1ccc(C[C@H](OCC(F)(F)F)C(=O)O)cc1" was 33

Form: compound = "CCO[C@@H](Cc1ccc(OCCN2CCC(C)(C)c3cc(/C(=N/OCC4CC4)c4ccccc4)ccc32)cc1)C(=O)O" ; Ki = 254

Record "CO/N=C(\c1ccccc1)c1ccc2c(c1)C(C)(C)CCN2CCOc1ccc(C[C@H](Nc2ccccc2C(=O)c2ccccc2)C(=O)O)cc1" , field Ki: 54

----------
- experimental-system: Peroxisome proliferator-activated receptor gamma (Homo sapiens)
- measurement-notes: Agonist activity at human PPARgamma by Gal4 transactivation assay
- Format: functional
- experimental-conditions: read-out: EC50
measured-metric: pEC50
Bear in mind: pEC50 is minus log10 of a mol/L concentration; give just that figure.

# record-smiles, experimental-system, pEC50
records = [
    ("CO/N=C(\\c1ccccc1)c1ccc2c(c1)C(C)(C)CCN2CCOc1ccc(C[C@H](Nc2ccccc2C(=O)c2ccccc2)C(=O)O)cc1", "Peroxisome proliferator-activated receptor gamma (Homo sapiens)", 7.85),
]

// pEC50 (Peroxisome proliferator-activated receptor gamma (Homo sapiens)) for "C=CCO/N=C(\c1ccccc1)c1ccc2c(c1)C(C)(C)CCN2CCOc1ccc(C[C@H](OCC)C(=O)O)cc1" = 7.89

pEC50 for Peroxisome proliferator-activated receptor gamma (Homo sapiens) with input "CCO[C@@H](Cc1ccc(OCCN2CCC(C)(C)c3cc(/C(=N/OCC4CC4)c4ccccc4)ccc32)cc1)C(=O)O" equals 8.12

Log: Peroxisome proliferator-activated receptor gamma (Homo sapiens), compound "CCOC(=O)N(CC(=O)O)Cc1ccc(OCCN2CCC(C)(C)c3cc(/C(=N/OC)c4ccccc4)ccc32)cc1" , pEC50 = 5.00

Observed pEC50 on Peroxisome proliferator-activated receptor gamma (Homo sapiens), entry "CO/N=C(\c1ccccc1)c1ccc2c(c1)C(C)(C)CCN2CCOc1ccc(C[C@H](OCC(F)(F)F)C(=O)O)cc1" , equals 6.90

Measured on Peroxisome proliferator-activated receptor gamma (Homo sapiens), "CCO[C@@H](Cc1ccc(OCCN2CCC(C)(C)c3cc(/C(=N/OCc4ccccc4)c4ccccc4)ccc32)cc1)C(=O)O" has a documented pEC50 of 8.15

The origin of these recorded values is ChEMBL document CHEMBL1151889.
